pIC50: −log10 of the molar value.
Quick record: pIC50, KDM5C (Homo sapiens, UniProt P41229).
PROPERTY MEASURED: pIC50

Some compounds with known pIC50 results, for comparison:
1) CN(C)C/C=C/C(=O)Nc1cccc(CN(C)CCc2cnn(-c3nccc4c(=O)[nH]cnc34)c2)c1 [Compound 6]
5.34
2) C=CC(=O)NCCOc1ccc(-c2[nH]c3c(C#N)cnn3c(=O)c2C(C)C)cc1 [Compound 9]
5.66

I: CC(C)c1c(-c2cnn(CCNC(=O)CCl)c2)[nH]c2c(C#N)cnn2c1=O [Compound 7]
II: C=CC(=O)N1CCC(n2cc(-c3[nH]c4c(C#N)cnn4c(=O)c3C(C)C)cn2)CC1 [Compound 10]
Among I and II , whose measured pIC50 is the smaller figure? Output the label that corresponds to your choice.
II

====

molecular target: KDM5D (Homo sapiens, UniProt Q9BY66); assay: KDM AlphaScreen selectivity panel, KDM5D; format: biochemical; settings: KDM5D IC50/KDM5B IC50
Sequence (Q9BY66 whole entry): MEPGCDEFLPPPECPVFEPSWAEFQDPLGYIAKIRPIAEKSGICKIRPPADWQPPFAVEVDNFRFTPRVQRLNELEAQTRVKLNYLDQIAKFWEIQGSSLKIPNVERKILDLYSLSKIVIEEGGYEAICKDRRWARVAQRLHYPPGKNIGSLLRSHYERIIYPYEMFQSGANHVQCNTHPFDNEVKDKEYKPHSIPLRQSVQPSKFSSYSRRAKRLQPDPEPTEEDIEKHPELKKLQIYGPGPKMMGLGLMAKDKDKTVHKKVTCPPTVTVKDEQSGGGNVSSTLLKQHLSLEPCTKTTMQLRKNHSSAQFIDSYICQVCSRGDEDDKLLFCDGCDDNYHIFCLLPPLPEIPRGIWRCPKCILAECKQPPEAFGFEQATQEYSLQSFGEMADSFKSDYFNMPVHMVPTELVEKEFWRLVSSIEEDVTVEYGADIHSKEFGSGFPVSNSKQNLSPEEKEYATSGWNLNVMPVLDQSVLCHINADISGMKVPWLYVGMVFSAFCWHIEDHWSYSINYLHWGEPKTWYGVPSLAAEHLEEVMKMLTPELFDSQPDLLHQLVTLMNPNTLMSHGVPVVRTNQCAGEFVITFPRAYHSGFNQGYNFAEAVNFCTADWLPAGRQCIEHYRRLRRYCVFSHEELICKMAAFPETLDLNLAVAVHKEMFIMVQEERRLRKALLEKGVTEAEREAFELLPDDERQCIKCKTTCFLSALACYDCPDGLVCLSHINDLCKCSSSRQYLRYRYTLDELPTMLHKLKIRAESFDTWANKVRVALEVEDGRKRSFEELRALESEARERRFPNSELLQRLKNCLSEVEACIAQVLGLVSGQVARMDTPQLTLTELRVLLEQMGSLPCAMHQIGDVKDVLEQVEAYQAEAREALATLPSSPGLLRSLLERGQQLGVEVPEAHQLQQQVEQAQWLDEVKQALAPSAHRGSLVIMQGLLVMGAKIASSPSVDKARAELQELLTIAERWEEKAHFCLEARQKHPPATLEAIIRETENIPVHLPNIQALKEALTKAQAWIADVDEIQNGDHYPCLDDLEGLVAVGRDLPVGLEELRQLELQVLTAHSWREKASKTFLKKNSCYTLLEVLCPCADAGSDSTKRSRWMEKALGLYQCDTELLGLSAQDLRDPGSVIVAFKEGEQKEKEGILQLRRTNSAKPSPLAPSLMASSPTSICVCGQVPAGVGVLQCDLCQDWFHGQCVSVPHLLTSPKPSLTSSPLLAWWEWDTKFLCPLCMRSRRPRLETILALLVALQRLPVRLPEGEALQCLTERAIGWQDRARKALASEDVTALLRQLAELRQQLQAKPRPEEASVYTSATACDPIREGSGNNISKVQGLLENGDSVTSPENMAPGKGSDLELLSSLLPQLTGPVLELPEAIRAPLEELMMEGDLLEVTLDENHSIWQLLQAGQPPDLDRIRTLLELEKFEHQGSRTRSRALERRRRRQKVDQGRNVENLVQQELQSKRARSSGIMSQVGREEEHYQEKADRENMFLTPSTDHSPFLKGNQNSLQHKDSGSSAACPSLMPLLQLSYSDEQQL
PROPERTY MEASURED: SI over KDM5B, 5D

Some molecules with known SI over KDM5B, 5D results, for comparison:
1) CN(CCc1cnn(-c2nccc3c(=O)[nH]cnc23)c1)Cc1cccc(NC(=O)CCl)c1
5
2) CC(C)c1c(-c2cnn(CCNC(=O)CCl)c2)[nH]c2c(C#N)cnn2c1=O
5
3) C=CC(=O)Nc1cccc(CN(C)CCc2cnn(-c3nccc4c(=O)[nH]cnc34)c2)c1
4
4) C=CC(=O)N1CCC(n2cc(-c3[nH]c4c(C#N)cnn4c(=O)c3C(C)C)cn2)CC1
5

1: CC(C)c1c(-c2cnn(C3CCN(C(=O)CCl)CC3)c2)[nH]c2c(C#N)cnn2c1=O
2: C=CC(=O)NCCOc1ccc(-c2[nH]c3c(C#N)cnn3c(=O)c2C(C)C)cc1
Exercise: compare 1 and 2 ; which one has the greater SI over KDM5B, 5D? Output the label that corresponds to your choice.
1
(1: 7, 2: 4)

====

biological target: UniProtKB Q9UGL1; experiment: Timecourse KDM5B AlphaScreen inhibition and kinact/Ki calculation; assay type: biochemical
Sequence (Q9UGL1 26-101 limits assumed): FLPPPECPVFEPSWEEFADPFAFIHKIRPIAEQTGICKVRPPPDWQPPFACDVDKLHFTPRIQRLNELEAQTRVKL
Sequence (Q9UGL1 374-770 limits assumed): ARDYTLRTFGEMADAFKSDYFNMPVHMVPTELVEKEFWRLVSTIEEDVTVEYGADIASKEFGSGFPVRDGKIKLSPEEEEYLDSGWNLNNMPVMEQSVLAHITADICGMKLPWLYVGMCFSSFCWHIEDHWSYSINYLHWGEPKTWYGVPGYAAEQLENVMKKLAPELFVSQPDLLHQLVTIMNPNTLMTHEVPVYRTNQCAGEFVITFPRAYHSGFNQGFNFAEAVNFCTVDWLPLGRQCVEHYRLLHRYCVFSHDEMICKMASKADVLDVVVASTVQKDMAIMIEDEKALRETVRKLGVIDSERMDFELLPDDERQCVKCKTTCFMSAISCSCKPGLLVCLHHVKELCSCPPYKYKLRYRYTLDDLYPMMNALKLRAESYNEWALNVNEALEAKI
PROPERTY MEASURED: Ki (nM)

Some compounds with known Ki results, for comparison:
1. CN(C)C/C=C/C(=O)Nc1cccc(CN(C)CCc2cnn(-c3nccc4c(=O)[nH]cnc34)c2)c1 [Compound 6]
124
2. C=CC(=O)NCCOc1ccc(-c2[nH]c3c(C#N)cnn3c(=O)c2C(C)C)cc1 [Compound 9]
723

A: C=CC(=O)N1CCC(n2cc(-c3[nH]c4c(C#N)cnn4c(=O)c3C(C)C)cn2)CC1 [Compound 10]
B: C=CC(=O)N1CCN(CCc2cnn(-c3nccc4c(=O)[nH]cnc34)c2)CC1 [Compound 3]
Among A and B , whose measured Ki is the smaller figure? Output the label that corresponds to your choice.
A

====

target: KDM4A (Homo sapiens); assay: KDM AlphaScreen selectivity panel, KDM4A; assay type: biochemical; settings: KDM4A IC50/KDM5B IC50
Sequence (O75164 whole entry): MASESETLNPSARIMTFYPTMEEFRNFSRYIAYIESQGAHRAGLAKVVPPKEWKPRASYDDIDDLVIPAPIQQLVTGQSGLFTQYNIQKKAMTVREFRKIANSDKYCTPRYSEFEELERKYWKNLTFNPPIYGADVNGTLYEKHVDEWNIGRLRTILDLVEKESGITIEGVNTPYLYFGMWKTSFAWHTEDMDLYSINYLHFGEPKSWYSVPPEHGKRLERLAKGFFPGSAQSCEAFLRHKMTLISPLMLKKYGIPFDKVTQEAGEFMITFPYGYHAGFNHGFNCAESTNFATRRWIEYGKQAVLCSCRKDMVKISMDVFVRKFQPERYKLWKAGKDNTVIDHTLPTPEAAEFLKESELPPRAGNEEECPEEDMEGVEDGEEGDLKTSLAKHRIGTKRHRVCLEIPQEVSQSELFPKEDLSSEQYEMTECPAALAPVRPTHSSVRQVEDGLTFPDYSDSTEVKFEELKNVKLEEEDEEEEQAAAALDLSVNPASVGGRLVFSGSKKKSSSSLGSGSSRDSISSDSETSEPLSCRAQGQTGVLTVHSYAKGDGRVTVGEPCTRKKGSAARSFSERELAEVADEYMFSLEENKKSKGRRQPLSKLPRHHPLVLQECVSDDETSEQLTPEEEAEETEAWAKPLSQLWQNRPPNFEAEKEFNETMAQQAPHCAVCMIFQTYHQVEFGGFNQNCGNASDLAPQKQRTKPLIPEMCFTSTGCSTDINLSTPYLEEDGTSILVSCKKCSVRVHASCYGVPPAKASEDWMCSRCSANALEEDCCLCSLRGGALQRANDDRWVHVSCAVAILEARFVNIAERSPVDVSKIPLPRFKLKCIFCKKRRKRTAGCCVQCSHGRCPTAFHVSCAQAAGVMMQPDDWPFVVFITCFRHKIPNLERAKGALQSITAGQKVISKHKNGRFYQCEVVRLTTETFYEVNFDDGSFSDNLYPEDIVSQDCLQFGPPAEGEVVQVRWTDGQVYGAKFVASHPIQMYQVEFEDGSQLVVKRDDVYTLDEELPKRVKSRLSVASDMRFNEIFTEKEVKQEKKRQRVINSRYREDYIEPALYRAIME
PROPERTY MEASURED: SI over KDM5B, 4A

Some molecules with known SI over KDM5B, 4A results, for comparison:
1. CC(C)c1c(-c2cnn(CCNC(=O)CCl)c2)[nH]c2c(C#N)cnn2c1=O
653
2. C=CC(=O)N1CCC(n2cc(-c3[nH]c4c(C#N)cnn4c(=O)c3C(C)C)cn2)CC1
742
3. CC(C)c1c(-c2cnn(C3CCN(C(=O)CCl)CC3)c2)[nH]c2c(C#N)cnn2c1=O
479

A: C=CC(=O)NCCOc1ccc(-c2[nH]c3c(C#N)cnn3c(=O)c2C(C)C)cc1
B: CN(CCc1cnn(-c2nccc3c(=O)[nH]cnc23)c1)Cc1cccc(NC(=O)CCl)c1
Among A and B , whose measured SI over KDM5B, 4A is the smaller figure? Output the label that corresponds to your choice.
B
